Target: T1, recombinant human MUC1-SEA (Homo sapiens, UniProt P15941)
T1 construct: on recombinant human MUC1-SEA on SPR; purchased Acrobiosystems MU1-H52H9
T1 sequence (P15941 1039-1148 limits assumed): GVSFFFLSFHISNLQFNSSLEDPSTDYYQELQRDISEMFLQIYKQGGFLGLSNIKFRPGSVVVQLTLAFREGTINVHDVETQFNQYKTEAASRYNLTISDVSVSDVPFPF
Assay: Binding strength by Surface Plasmon Resonance (SPR)
Settings: Table 2
kd by entry:
Readout name: kd (s⁻¹)

Molecule	Unit descriptor	Observed value
HM4 LM2: variant of SP66; VH HM4 SEQ ID NO: 10, VL LM2 SEQ ID NO: 13 (antibody, V domains shown) VH: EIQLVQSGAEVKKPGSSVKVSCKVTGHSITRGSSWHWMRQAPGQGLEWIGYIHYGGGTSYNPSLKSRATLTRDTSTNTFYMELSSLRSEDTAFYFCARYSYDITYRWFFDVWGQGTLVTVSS VL: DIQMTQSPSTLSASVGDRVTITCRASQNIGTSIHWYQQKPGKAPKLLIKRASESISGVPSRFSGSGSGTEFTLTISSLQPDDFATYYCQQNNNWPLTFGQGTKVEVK	s⁻¹	0.000261
HM3 LM3: variant of SP66; VH HM3 SEQ ID NO: 9, VL LM3 SEQ ID NO: 14 (antibody, V domains shown) VH: EIQLVQSGAEVKKPGSSVKVSCKVTGHSITRGSSWHWMRQAPGQGLEWIGYIHYGGGTSYNPSLKSRATLTRDTSTNTAYMELSSLRSEDTAFYFCARYSYDITYRWFFDVWGQGTLVTVSS VL: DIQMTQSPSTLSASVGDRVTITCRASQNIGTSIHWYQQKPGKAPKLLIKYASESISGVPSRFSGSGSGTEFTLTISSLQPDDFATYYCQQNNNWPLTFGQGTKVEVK	s⁻¹	0.00347

Sourced from patent US20250041437A1
